- Type: in vivo, BALB/c mice
- details: male, BALB/c, mouse, whole blood, iv, 0.25 mg/kg

>  <molecule>
CC(C)C[C@H](NC(=O)[C@H](Cc1ccccc1)NC(=O)c1cnccn1)B(O)O [Bortezomib]

>  <Kp>
52.8

$$$$

* * *

- Format: in vivo, BALB/c mice
- details: male, BALB/c, mouse, muscle, iv, 1 mg/kg
parameter: half-life (h)

>  <compound>
CC(C)C[C@H](NC(=O)[C@H](Cc1ccccc1)NC(=O)c1cnccn1)B(O)O

>  <parameter>
half-life

>  <val>
112

$$$$

* * *

- Assay type: in vivo, BALB/c mice
- details: male, BALB/c, mouse, muscle, iv, 1 mg/kg

>  <compound>
CC(C)C[C@H](NC(=O)[C@H](Cc1ccccc1)NC(=O)c1cnccn1)B(O)O

>  <AUC(0-inf)>
17.3 µM·h

$$$$

* * *

- protocol.description: Global PBPK model fitted to mouse plasma and tissue PK data
- Assay type: in vivo, mice
- details: male, BALB/c, mouse, liver, intravenous
parameter: clearance (mL/min)

>  <compound>
CC(C)C[C@H](NC(=O)[C@H](Cc1ccccc1)NC(=O)c1cnccn1)B(O)O [Bortezomib]

>  <val>
0.0063

$$$$

* * *

- Assay type: in vivo, BALB/c mice
- details: male, BALB/c, mouse, bone, iv, 1 mg/kg

>  <compound>
CC(C)C[C@H](NC(=O)[C@H](Cc1ccccc1)NC(=O)c1cnccn1)B(O)O

>  <unit.descriptor>
h

>  <half-life>
173

$$$$

* * *

- Type: in vivo, BALB/c mice
- details: male, BALB/c, mouse, bone, iv, 1 mg/kg

>  <compound>
CC(C)C[C@H](NC(=O)[C@H](Cc1ccccc1)NC(=O)c1cnccn1)B(O)O [Bortezomib]

>  <unit.descriptor>
µM·h

>  <AUC(0-inf)>
27.2

$$$$

* * *

- Type: in vivo, BALB/c mice
- details: male, BALB/c, mouse, muscle, iv, 1 mg/kg

>  <compound>
CC(C)C[C@H](NC(=O)[C@H](Cc1ccccc1)NC(=O)c1cnccn1)B(O)O

>  <Kp>
0.9

$$$$

* * *

- Assay type: in vivo, BALB/c mice
- details: male, BALB/c, mouse, plasma, iv, 0.25 mg/kg
parameter: half-life (h)

>  <compound>
CC(C)C[C@H](NC(=O)[C@H](Cc1ccccc1)NC(=O)c1cnccn1)B(O)O

>  <val>
96

$$$$

* * *

- Format: in vivo, BALB/c mice
- details: male, BALB/c, mouse, spleen, iv, 1 mg/kg

>  <compound>
CC(C)C[C@H](NC(=O)[C@H](Cc1ccccc1)NC(=O)c1cnccn1)B(O)O

>  <Kp>
5.5

$$$$

* * *

- Format: in vivo, BALB/c mice
- details: male, BALB/c, mouse, lung, iv, 1 mg/kg
parameter: half-life (h)

>  <compound>
CC(C)C[C@H](NC(=O)[C@H](Cc1ccccc1)NC(=O)c1cnccn1)B(O)O

>  <parameter>
half-life

>  <val>
133

$$$$

* * *

- Assay type: in vivo, BALB/c mice
- details: male, BALB/c, mouse, plasma, iv, 0.25 mg/kg

>  <compound>
CC(C)C[C@H](NC(=O)[C@H](Cc1ccccc1)NC(=O)c1cnccn1)B(O)O [Bortezomib]

>  <Kp>
1

$$$$

* * *

- Type: in vivo, BALB/c mice
- details: male, BALB/c, mouse, liver, iv, 1 mg/kg

>  <compound>
CC(C)C[C@H](NC(=O)[C@H](Cc1ccccc1)NC(=O)c1cnccn1)B(O)O

>  <unit.descriptor>
h

>  <half-life>
105

$$$$

* * *

- Type: in vivo, BALB/c mice
- details: male, BALB/c, mouse, whole blood, iv, 1 mg/kg

>  <compound>
CC(C)C[C@H](NC(=O)[C@H](Cc1ccccc1)NC(=O)c1cnccn1)B(O)O

>  <half-life / h>
173

$$$$

* * *

- Format: in vivo, BALB/c mice
- details: male, BALB/c, mouse, plasma, iv, 0.25 mg/kg

>  <compound>
CC(C)C[C@H](NC(=O)[C@H](Cc1ccccc1)NC(=O)c1cnccn1)B(O)O

>  <AUC(0-inf) (µM·h)>
0.9

$$$$

* * *

- Type: in vivo, BALB/c mice
- details: male, BALB/c, mouse, kidney, iv, 1 mg/kg

>  <compound>
CC(C)C[C@H](NC(=O)[C@H](Cc1ccccc1)NC(=O)c1cnccn1)B(O)O

>  <half-life>
204 h

$$$$

* * *

- Format: in vivo, BALB/c mice
- details: male, BALB/c, mouse, plasma, iv, 1 mg/kg

>  <compound>
CC(C)C[C@H](NC(=O)[C@H](Cc1ccccc1)NC(=O)c1cnccn1)B(O)O

>  <unit.descriptor>
µM·h

>  <AUC(0-inf)>
19.4

$$$$

* * *

- Format: in vivo, BALB/c mice
- details: male, BALB/c, mouse, kidney, iv, 1 mg/kg

>  <molecule>
CC(C)C[C@H](NC(=O)[C@H](Cc1ccccc1)NC(=O)c1cnccn1)B(O)O [Bortezomib]

>  <AUC(0-inf) / µM·h>
180

$$$$

* * *

- Format: in vivo, BALB/c mice
- details: male, BALB/c, mouse, whole blood, iv, 0.25 mg/kg

>  <compound>
CC(C)C[C@H](NC(=O)[C@H](Cc1ccccc1)NC(=O)c1cnccn1)B(O)O

>  <unit.descriptor>
h

>  <half-life>
182

$$$$

* * *

- Type: in vivo, BALB/c mice
- details: male, BALB/c, mouse, spleen, iv, 1 mg/kg

>  <compound>
CC(C)C[C@H](NC(=O)[C@H](Cc1ccccc1)NC(=O)c1cnccn1)B(O)O [Bortezomib]

>  <unit.descriptor>
µM·h

>  <AUC(0-inf)>
107

$$$$

* * *

- Assay type: in vivo, BALB/c mice
- details: male, BALB/c, mouse, bone, iv, 1 mg/kg

>  <compound>
CC(C)C[C@H](NC(=O)[C@H](Cc1ccccc1)NC(=O)c1cnccn1)B(O)O

>  <Kp>
1.4

$$$$

* * *

- Type: in vivo, BALB/c mice
- details: male, BALB/c, mouse, whole blood, iv, 0.25 mg/kg

>  <compound>
CC(C)C[C@H](NC(=O)[C@H](Cc1ccccc1)NC(=O)c1cnccn1)B(O)O [Bortezomib]

>  <AUC(0-inf) [µM·h]>
46.4

$$$$

* * *

- Assay type: in vivo, BALB/c mice
- details: male, BALB/c, mouse, spleen, iv, 0.25 mg/kg
parameter: Kp

>  <compound>
CC(C)C[C@H](NC(=O)[C@H](Cc1ccccc1)NC(=O)c1cnccn1)B(O)O [Bortezomib]

>  <val>
117

$$$$

* * *

- Assay type: in vivo, BALB/c mice
- details: male, BALB/c, mouse, spleen, iv, 1 mg/kg

>  <compound>
CC(C)C[C@H](NC(=O)[C@H](Cc1ccccc1)NC(=O)c1cnccn1)B(O)O

>  <half-life, h>
131

$$$$

* * *

- Format: in vivo, BALB/c mice
- details: male, BALB/c, mouse, lung, iv, 0.25 mg/kg
parameter: AUC(0-inf) (µM·h)

>  <compound>
CC(C)C[C@H](NC(=O)[C@H](Cc1ccccc1)NC(=O)c1cnccn1)B(O)O

>  <parameter>
AUC(0-inf)

>  <val>
39.3

$$$$

* * *

- Format: in vivo, BALB/c mice
- details: male, BALB/c, mouse, spleen, iv, 0.25 mg/kg
parameter: AUC(0-inf)

>  <compound>
CC(C)C[C@H](NC(=O)[C@H](Cc1ccccc1)NC(=O)c1cnccn1)B(O)O

>  <val>
103 µM·h

$$$$

* * *

- Format: in vivo, BALB/c mice
- details: male, BALB/c, mouse, lung, iv, 1 mg/kg

>  <compound>
CC(C)C[C@H](NC(=O)[C@H](Cc1ccccc1)NC(=O)c1cnccn1)B(O)O

>  <Kp>
3.1

$$$$

* * *

- Assay type: in vivo, BALB/c mice
- details: male, BALB/c, mouse, bone, iv, 0.25 mg/kg

>  <compound>
CC(C)C[C@H](NC(=O)[C@H](Cc1ccccc1)NC(=O)c1cnccn1)B(O)O

>  <half-life [days]>
11.5

$$$$

* * *

- Type: in vivo, BALB/c mice
- details: male, BALB/c, mouse, liver, iv, 0.25 mg/kg

>  <compound>
CC(C)C[C@H](NC(=O)[C@H](Cc1ccccc1)NC(=O)c1cnccn1)B(O)O

>  <AUC(0-inf) (µM·h)>
17

$$$$

* * *

- Type: in vivo, BALB/c mice
- details: male, BALB/c, mouse, lung, iv, 0.25 mg/kg

>  <compound>
CC(C)C[C@H](NC(=O)[C@H](Cc1ccccc1)NC(=O)c1cnccn1)B(O)O

>  <Kp>
44.7

$$$$

* * *

- Assay type: in vivo, BALB/c mice
- details: male, BALB/c, mouse, whole blood, iv, 1 mg/kg

>  <compound>
CC(C)C[C@H](NC(=O)[C@H](Cc1ccccc1)NC(=O)c1cnccn1)B(O)O [Bortezomib]

>  <Kp>
4.8

$$$$
